Please provide measured CRF1R Emax for the entries that follow.
molecular target: CRF1R; experiment: cell-based or functional assay
Answers are plain numbers, in %.

[
  {
    "Binder": "ZGPPISIDLPTYLLRKMIEIEKQEKEKQQATTNARILARV (C-terminal amide) [SEQ ID NO 151]",
    "Unit annotation": "%",
    "CRF1R Emax": 19.9
  }
]

For each listed entry, give its CRF1R Emax.
1. ZGPPISIDLPYVLLRKMIEIEKQEKEKQQAANNRLLLDTI (C-terminal amide) [SEQ ID NO 201]
2. ZGPPISIDLPYHLLRKMIEIEKQEKEKQQAANNRLLLDTI (C-terminal amide) [SEQ ID NO 208]

[80, 81]
